Assayed target: T1, sIL-6R (soluble IL-6 receptor; SBH Sciences) (human, UniProt P08887 20-365)
T1 construct: also called human IL-6R
T1 sequence: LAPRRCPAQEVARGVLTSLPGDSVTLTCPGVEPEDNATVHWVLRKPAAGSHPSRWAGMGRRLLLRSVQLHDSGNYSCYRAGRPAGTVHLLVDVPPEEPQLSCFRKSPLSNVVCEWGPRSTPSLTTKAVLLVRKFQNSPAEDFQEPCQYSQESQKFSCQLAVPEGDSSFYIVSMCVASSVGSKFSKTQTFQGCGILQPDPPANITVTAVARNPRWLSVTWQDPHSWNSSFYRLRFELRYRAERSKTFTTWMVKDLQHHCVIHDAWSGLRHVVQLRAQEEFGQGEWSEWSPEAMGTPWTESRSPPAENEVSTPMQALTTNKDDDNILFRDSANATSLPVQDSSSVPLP
Assay summary: SPR (BIAcore 3000), antibody on chip, sIL-6R analyte, 25 C
Reported endpoint: koff (s⁻¹)
Use s⁻¹ as the unit, but write only the number.

Consider the reported koff for these binders:
- Binder: "14# (antibody, human IgG1, kappa, V domains shown, also called Sample # 14) VH: QVQLQESGPGLVRPSQTLSLTCTVSGYSITSDHAWSWVRQPPGRGLEWIGFISYSGITTYNPSLKSRVTMLRDTSKNQFSLRLSSVTAADTAVYYCARSLARITAMDYWGQGSLVTVSS VL: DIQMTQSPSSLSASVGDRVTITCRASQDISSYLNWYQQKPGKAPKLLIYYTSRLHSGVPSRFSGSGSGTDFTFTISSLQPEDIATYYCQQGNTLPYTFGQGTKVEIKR"
  Reported endpoint: "koff"
  Quantity unit: "s⁻¹"
  Experimental result: "9.75e-05"
- Binder: "15# (antibody, human IgG1, kappa, V domains shown, also called Sample # 15) VH: QVQLQESGPGLVRPSQTLSLTCTVSGYSITSDHAWSWVRQPPGRGLEWIGFISYSGITTYNPSLKSRVTMLRDTSKNQFSLRLSSVTAADTAVYYCARCLARITAMDYWGQGSLVTVSS VL: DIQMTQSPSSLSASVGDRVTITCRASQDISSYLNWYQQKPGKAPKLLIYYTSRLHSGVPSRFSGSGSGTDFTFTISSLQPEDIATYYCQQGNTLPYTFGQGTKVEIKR"
  Reported endpoint: "koff"
  Quantity unit: "s⁻¹"
  Experimental result: "5.97e-05"

Would you kindly look at the next entry?
Input line: # input binder: 45# (antibody, human IgG1, kappa, V domains shown, also called Sample # 45) VH: QVQLQESGPGLVRPSQTLSLTCTVSGYSITSDHAWSWVRQPPGRGLEWIGYISYSGITTYNPSLKSRVTMLRDTSKNQFSLRLSSVTAADTAVYYCARTLARTTAMDYWGQGSLVTVSS VL: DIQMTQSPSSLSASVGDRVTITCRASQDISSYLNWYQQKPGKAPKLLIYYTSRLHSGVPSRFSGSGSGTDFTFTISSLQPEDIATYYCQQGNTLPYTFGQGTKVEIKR ; wanted: its koff
Output line: 0.000106
